# SYSTEM TESTED: T1, human SLC34A2 (human, UniProt O95436 1-690)
# T1 sequence (looked up): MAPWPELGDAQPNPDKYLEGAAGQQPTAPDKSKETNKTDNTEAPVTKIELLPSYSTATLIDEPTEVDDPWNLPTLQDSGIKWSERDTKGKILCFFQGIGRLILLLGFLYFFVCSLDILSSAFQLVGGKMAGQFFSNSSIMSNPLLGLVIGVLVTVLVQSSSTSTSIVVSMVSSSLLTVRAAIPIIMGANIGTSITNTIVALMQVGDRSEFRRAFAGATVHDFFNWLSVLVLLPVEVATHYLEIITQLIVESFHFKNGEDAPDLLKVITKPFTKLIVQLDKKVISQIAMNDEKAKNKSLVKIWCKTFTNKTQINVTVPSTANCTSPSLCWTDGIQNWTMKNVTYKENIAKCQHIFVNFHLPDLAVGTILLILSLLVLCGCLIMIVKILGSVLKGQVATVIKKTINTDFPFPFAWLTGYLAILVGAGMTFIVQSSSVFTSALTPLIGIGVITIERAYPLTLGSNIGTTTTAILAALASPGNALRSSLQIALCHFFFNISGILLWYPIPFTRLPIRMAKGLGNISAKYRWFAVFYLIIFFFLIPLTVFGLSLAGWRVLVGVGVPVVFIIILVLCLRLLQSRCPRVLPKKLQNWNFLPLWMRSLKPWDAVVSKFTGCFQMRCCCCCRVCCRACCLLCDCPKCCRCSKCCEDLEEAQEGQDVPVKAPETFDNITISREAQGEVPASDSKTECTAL
# EXPERIMENTAL PROTOCOL: cell-based or functional assay
Recorded Cytotoxic Effect - MDAH-2774 for the following binders
Unit nM implied. Number only.

Examples from the recorded data:
{"columns": ["BINDER", "MEASUREMENT UNIT", "Cytotoxic Effect - MDAH-2774"],
 "data": [
  ["62G10E4G8.p3.z15 hIgG1 (antibody, V domains shown, humanized hIgG1) VH: QVQLVQSGAEVVKPGASVKMSCKASGYTFPSYITHWVKQAPGQGLEWIGAIYPGNADTSYIQKFKGRATLTADKSTSTAYMELSSLRSEDTAVYYCARGTYGTSAWFTYWGQGTLVTVSS VL: EIVLTQSPATLSVSPGERATLSCRARQNIGNNLYWYQQKPGQSPRLLIKYASQSISGIPSRFSGSGSGTDFTLTISSLQSEDFAVYFCQQSFSWPLTFGQGTKLEIK", "nM", 0.24],
  ["30H9B8F9.p1.z5 hIgG1 (antibody, V domains shown, humanized hIgG1) VH: QVQLVQSGAEVKKPGASVKVSCKTSGYTFTTNNMHWVRQAPGQGLEWIGAIYPGSGATAYNQKFKGRVTMTADTSTSTVYMELSSLRSEDTAVYYCARGMYGHGAMDYWGQGTLVTVSS VL: DIQLTQSPSFLSASVGDRVTITCKASQDVGTAVAWYQQKPGKAPKLLIYWATTRHSGVPSRFSGSGSGTEFTLTISSLQPEDFATYYCQQYSSNPLTFGQGTKLEIK", "nM", 0.21],
  ["91C9F1.p1.z7 hIgG1 (antibody, V domains shown, humanized hIgG1) VH: QVQLVQSGAEVKKPGSSVKVSCKTSGFFFTEYIIHWVRQAPGQGLEWIGGIIPNNDVTNYKQNFRGRVTLTADKSTSTAYMELSSLRSEDTAVYYCARWRNAYYSAMDSWGQGTTVTVSS VL: DIQVTQSPSSLSTSVGDRVTITCTASQDVGTAVAWYQQKPGKSPKLLIYWASTRHTGVPERFTGSGSGTDFTLTISSVQPEDVATYFCQQYRTSPLTFGVGTKVEIK", "nM", 0.39]
]}

Reported Cytotoxic Effect - MDAH-2774 for 63A11D5B4.p1.z9 hIgG1 (antibody, V domains shown, humanized hIgG1) VH: QVQLVQSGAEVVKPGASVKMSCKTSGYTFITYNMHWVRQAPGQGLEWIGAIYPGSGDTSYNQKFKGRVTLTADKSTSTAYMELSSLRSEDTAVYYCSISTIITTGAVDYWGQGTLVTVSS VL: DIQMTQSPSSLSASVGDRVTITCKASQDVGTAVAWYQQKPGKVPKLLIYWTSTRHTGVPSRFSGSGSGTDFTLTISSLQPEDVATYYCQQYSRIPLTFGGGTKVEIK was 1.5
